testTarget: JAK1 (Homo sapiens, UniProt P23458)
Construct: purchased Invitrogen Corporation, Madison, Wis; PV4775
Sequence (P23458 whole entry): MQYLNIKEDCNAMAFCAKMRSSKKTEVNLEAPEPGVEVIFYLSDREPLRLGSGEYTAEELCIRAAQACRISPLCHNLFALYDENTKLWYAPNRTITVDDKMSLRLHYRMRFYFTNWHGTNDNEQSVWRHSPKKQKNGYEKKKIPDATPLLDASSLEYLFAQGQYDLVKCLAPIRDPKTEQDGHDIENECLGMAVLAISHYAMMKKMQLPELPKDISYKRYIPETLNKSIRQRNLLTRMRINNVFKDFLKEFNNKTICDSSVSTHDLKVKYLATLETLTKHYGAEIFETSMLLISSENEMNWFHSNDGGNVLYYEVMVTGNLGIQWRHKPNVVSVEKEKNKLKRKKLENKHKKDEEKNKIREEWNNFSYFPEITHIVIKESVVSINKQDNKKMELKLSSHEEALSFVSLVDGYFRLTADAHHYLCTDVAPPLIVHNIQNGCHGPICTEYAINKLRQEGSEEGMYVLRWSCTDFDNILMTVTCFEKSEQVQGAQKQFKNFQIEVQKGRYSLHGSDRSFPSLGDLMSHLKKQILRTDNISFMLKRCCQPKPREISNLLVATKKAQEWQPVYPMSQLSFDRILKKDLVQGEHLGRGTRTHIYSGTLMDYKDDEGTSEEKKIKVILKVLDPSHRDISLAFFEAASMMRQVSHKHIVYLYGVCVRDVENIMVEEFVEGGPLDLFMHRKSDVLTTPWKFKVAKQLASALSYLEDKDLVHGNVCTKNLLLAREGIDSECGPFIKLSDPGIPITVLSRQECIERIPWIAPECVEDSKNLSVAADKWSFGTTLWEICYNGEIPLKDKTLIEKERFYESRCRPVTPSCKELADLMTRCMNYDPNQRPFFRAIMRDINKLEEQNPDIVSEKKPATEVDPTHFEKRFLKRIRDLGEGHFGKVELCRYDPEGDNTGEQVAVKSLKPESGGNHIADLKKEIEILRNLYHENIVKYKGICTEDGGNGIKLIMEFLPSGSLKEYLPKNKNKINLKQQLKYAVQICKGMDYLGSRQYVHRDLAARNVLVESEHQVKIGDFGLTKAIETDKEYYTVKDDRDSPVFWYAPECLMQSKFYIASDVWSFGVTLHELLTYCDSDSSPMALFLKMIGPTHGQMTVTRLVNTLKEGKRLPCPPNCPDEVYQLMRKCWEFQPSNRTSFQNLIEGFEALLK
assayComment: JAK enzymatic assay (peptide mobility shift), JAK1
Assay type: biochemical
statedConditions: recombinant JAK1 20 nM, ATP 40 μM, 1 μM IRS-1 peptide, 240 minutes
Measured pIC50, listed per entry for reference.
Note on pIC50: it is the negative log10 of concentration, concentration in mol/L.

INSERT INTO results (compound, datavalue) VALUES
  ('CN(c1ncnc2[nH]ccc12)[C@H]1CC[C@H](CS(=O)(=O)Nc2ccc(Cl)nc2)CC1', 7.73),
  ('COc1cccc(CCNS(=O)(=O)C[C@H]2CC[C@H](N(C)c3ncnc4[nH]ccc34)CC2)c1', 7.96),
  ('CN(C)S(=O)(=O)C[C@H]1CC[C@H](N(C)c2ncnc3[nH]ccc23)CC1', 8.13),
  ('CN(CCO)S(=O)(=O)C[C@H]1CC[C@H](N(C)c2ncnc3[nH]ccc23)CC1', 7.79);

## Task Assign pIC50 to the following record: "CN(c1ncnc2[nH]ccc12)[C@H]1CC[C@H](CS(=O)(=O)Nc2ccn[nH]2)CC1"
## Result 7.82

## Task Provide pIC50 value for the following compound: "Cc1cc(NS(=O)(=O)C[C@H]2CC[C@H](N(C)c3ncnc4[nH]ccc34)CC2)n[nH]1"
## Result 7.73

## Task Determine its reported pIC50: "CN(c1ncnc2[nH]ccc12)[C@H]1CC[C@H](CS(=O)(=O)NCCc2ccc(C(F)(F)F)cc2)CC1"
## Result 7.78

## Task Please list pIC50 recorded for the compound CN(c1ncnc2[nH]ccc12)[C@H]1CC[C@H](CS(=O)(=O)NCC(F)c2ccc(F)cc2)CC1 (some centres unmarked)
## Result 7.87

----------
Quick reference for pIC50 among some compounds
testTarget: JAK1 (Homo sapiens, UniProt P23458)
Construct: PV4775
assayComment: JAK enzymatic assay (peptide mobility shift), JAK1
statedConditions: recombinant JAK1 20 nM, ATP 40 μM, 1 μM IRS-1 peptide, 240 minutes
# pIC50 = -log10(concentration in molar units)

Reference set (3 entries):
INSERT INTO results (compound, observationtype, datavalue) VALUES
  ('CN(c1ncnc2[nH]ccc12)[C@H]1CC[C@H](CS(=O)(=O)Nc2ccc(CC#N)cc2)CC1 [Example 20]', 'pIC50', 8.02),
  ('CN(c1ncnc2[nH]ccc12)[C@H]1CC[C@H](CS(=O)(=O)NCC(O)c2ccc(F)c(F)c2)CC1 (stereo partly shown) [Example 39]', 'pIC50', 8.01),
  ('Cc1nn(C)cc1CNS(=O)(=O)C[C@H]1CC[C@H](N(C)c2ncnc3[nH]ccc23)CC1 [Example 52]', 'pIC50', 7.62);

## Task Look up pIC50 of CC(C)c1ccc(CCNS(=O)(=O)C[C@H]2CC[C@H](N(C)c3ncnc4[nH]ccc34)CC2)c(F)c1 [Example 38] and report it.
## Result 8.04

----------
testTarget: JAK3 (Homo sapiens)
Construct: PV3855
Sequence (P52333 whole entry): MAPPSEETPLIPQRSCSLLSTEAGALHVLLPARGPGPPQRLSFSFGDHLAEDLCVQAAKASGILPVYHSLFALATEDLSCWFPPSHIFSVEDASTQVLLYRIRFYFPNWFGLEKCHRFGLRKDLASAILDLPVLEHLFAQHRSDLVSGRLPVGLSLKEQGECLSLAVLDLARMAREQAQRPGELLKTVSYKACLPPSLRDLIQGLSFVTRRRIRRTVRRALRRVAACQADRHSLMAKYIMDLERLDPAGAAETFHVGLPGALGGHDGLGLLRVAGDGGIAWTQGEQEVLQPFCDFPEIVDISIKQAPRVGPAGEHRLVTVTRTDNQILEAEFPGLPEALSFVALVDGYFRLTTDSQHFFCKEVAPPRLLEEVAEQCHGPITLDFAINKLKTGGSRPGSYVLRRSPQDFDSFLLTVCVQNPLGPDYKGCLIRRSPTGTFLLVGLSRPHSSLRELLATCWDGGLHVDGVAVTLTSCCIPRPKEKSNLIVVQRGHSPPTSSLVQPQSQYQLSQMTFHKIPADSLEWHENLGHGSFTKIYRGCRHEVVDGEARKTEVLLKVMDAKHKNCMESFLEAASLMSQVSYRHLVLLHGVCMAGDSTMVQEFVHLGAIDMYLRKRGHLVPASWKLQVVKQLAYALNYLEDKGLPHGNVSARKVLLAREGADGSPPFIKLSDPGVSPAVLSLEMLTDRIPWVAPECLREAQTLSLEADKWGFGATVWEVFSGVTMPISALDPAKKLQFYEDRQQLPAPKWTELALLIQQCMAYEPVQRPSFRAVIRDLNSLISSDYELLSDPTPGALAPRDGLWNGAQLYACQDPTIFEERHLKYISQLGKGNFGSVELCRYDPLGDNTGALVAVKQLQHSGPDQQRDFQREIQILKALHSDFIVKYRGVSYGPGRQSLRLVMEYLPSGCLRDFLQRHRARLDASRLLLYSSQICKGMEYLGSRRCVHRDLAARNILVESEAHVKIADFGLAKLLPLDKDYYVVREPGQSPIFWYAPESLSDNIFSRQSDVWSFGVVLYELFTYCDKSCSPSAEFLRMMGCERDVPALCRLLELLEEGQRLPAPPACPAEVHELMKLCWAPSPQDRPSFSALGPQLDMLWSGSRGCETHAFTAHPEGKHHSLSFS
assayComment: JAK enzymatic assay (peptide mobility shift), JAK3
statedConditions: recombinant JAK3 1 nM, ATP 4 μM, 1 μM JAKtide peptide, 90 minutes
observationType: pIC50
Quick note: pIC50 means taking -log10 of the concentration in moles per liter.

Illustrative cases are given below, each with its answer.
INSERT INTO measurements (smilesentry, datavalue) VALUES
  ('CN(c1ncnc2[nH]ccc12)[C@H]1CC[C@H](CS(=O)(=O)NCCc2cccc(F)c2)CC1', 6.72),
  ('CN(C)S(=O)(=O)C[C@H]1CC[C@H](N(C)c2ncnc3[nH]ccc23)CC1', 6.76),
  ('CN(c1ncnc2[nH]ccc12)[C@H]1CC[C@H](CS(=O)(=O)Nc2ccc3[nH]ccc3c2)CC1', 7.25);

## Task Find the measured pIC50 of "CN(c1ncnc2[nH]ccc12)[C@H]1CC[C@@H](CS(=O)(=O)NCc2ccccc2)CC1" with JAK3 (Homo sapiens) as test system.
## Result 6.79

## Task Enter recorded pIC50 with JAK3 (Homo sapiens) for "COc1ccc(NS(=O)(=O)C[C@H]2CC[C@H](N(C)c3ncnc4[nH]ccc34)CC2)cn1" here.
## Result 6.92
